// provenance: ChEMBL document CHEMBL1821556

- Tested on: Mycobacterium tuberculosis
- Protocol Summary: Bactericidal activity against Mycobacterium tuberculosis assessed as minimum concentration required for anaerobicidal activity
- Assay type: functional
Measured Property: Activity (µM)
Give bare numbers, in µM.

[[record]]
molecule = "O=[N+]([O-])c1cn2c(n1)OC[C@@H](NC(c1ccc(OC(F)(F)F)cc1)c1ncco1)C2 (mixture of isomers)"
measured_number = 7.8

[[record]]
molecule = "O=[N+]([O-])c1cn2c(n1)OC[C@@H](NC(CO)c1ccc(OC(F)(F)F)cc1)C2 (mixture of isomers)"
measured_number = 11

[[record]]
molecule = "CCCCC(N[C@@H]1COc2nc([N+](=O)[O-])cn2C1)c1ccc(OC(F)(F)F)cc1 (mixture of isomers)"
measured_number = 4.4

[[record]]
molecule = "O=[N+]([O-])c1cn2c(n1)OC[C@@H](NCc1ccc(OC(F)(F)F)cc1OCc1ccccc1)C2"
measured_number = 7.5

[[record]]
molecule = "O=[N+]([O-])c1cn2c(n1)OC[C@@H](NCc1ccc(OC(F)(F)F)cc1Oc1ccccc1)C2"
measured_number = 4.4


Field: Activity. Fill in for each record below.
1. O=[N+]([O-])c1cn2c(n1)OC[C@@H](NCc1ccc(OC(F)(F)F)cc1F)C2
2. CN1CCN(c2cc(CN[C@@H]3COc4nc([N+](=O)[O-])cn4C3)ccc2OC(F)(F)F)CC1
3. O=[N+]([O-])c1cn2c(n1)OC[C@@H](NC(c1ccc(OC(F)(F)F)cc1)c1ncc[nH]1)C2 (mixture of isomers)
4. CCC(N[C@@H]1COc2nc([N+](=O)[O-])cn2C1)c1ccc(OC(F)(F)F)cc1 (mixture of isomers)

[2.5, 7.8, 17, 3.1]
